tested on: Human betaherpesvirus 5; assay: Activity at HCMV US28 receptor assessed as receptor-mediated inositol phosphate response at 10 uM
Readout name: Activity (%)
Give bare numbers, in %.

For CC(Cc1cccc(C(F)(F)F)c1)NCC=C(c1ccc(F)cc1)c1ccc(F)cc1 (stereo not drawn) the compound record lists Activity as 38

For CN1CCN(C2=Nc3cc(Cl)ccc3Oc3ccccc32)CC1 the compound record lists Activity as 22

For N/C(CCN1C2CCC1CC(OC1c3ccccc3CCc3ccccc31)C2)=N\O (stereo not drawn) the compound record lists Activity as 0

For CCN1C2CCC1CC(OC1c3ccccc3CCc3ccccc31)C2 (stereo not drawn) the compound record lists Activity as 0

Would you be so kind as to report Activity for each listed record?
1. CN1CCN(C2=Nc3cc(Cl)ccc3Sc3ccccc32)CC1
2. CCCCN1CCN(C2=Nc3cc(Cl)ccc3Nc3ccccc32)CC1
3. CCN1CCN(C2=Nc3cc(Cl)ccc3Oc3ccccc32)CC1
4. NC(CCc1ccccc1)c1ccc(Cl)c(Cl)c1 (stereo not drawn)
5. CC(Cc1cccc(C(F)(F)F)c1)NCCc1c2ccccc2nc2ccccc12 (stereo not drawn)
6. CC(C)N1C2CCC1CC(OC1c3ccccc3C=Cc3ccccc31)C2 (stereo not drawn)

Reply:
1. 0
2. 19
3. 0
4. 34
5. 34
6. 3

Would you be so kind as to report Activity for each listed record?
1. CN1CCN(CCCN2Cc3ccccc3CCc3ccccc32)CC1
2. CC(Cc1ccccc1)NCC=C1c2ccccc2CCc2ccccc21 (stereo not drawn)
3. CN1CCN(C2=Nc3ccccc3Sc3ccc(Cl)cc32)CC1
4. CN1[C@@H]2CC[C@H]1C[C@@H](OC1c3ccccc3CCc3ccccc31)C2
5. NC1c2ccccc2CCCC1Cc1ccc(Cl)cc1Cl (stereo not drawn)

Reply:
1. 3
2. 39
3. 0
4. 0
5. 26

Would you be so kind as to report Activity for each listed record?
1. CN1CCN(CCC(=O)N2Cc3ccccc3CCc3ccccc32)CC1
2. CN1CCN(C2=Nc3ccccc3Oc3ccc(Cl)cc32)CC1
3. Clc1cccc(/C=C(\c2ccccc2)N2CCN(CCCCc3ccccc3)CC2)c1
4. CCc1ccccc1C1(OCCN(C)Cc2cccc(C)c2)CCCCC1C (stereo not drawn)
5. CC(Cc1ccccc1)NCC=C1c2ccccc2-c2ccccc21 (stereo not drawn)
6. OCCCCN1CCN(/C(=C/c2cccc(Cl)c2)c2ccccc2)CC1
7. CN1CCN(/C(=C/c2cccc(Cl)c2)c2ccccc2)CC1
8. N=C(N)NCCN1C2CCC1CC(OC1c3ccccc3CCc3ccccc31)C2 (stereo not drawn)

Reply:
0
0
18
10
42
0
20
0

The measurements presented in this section are drawn from ChEMBL document CHEMBL1158527.
